System: SK-OV-3 ovarian
assay notes: NCI tumour cell line growth inhibition, 48 h
reported endpoint: TGI

INSERT INTO results (compound, tgt, reported_endpoint, reported_result) VALUES
  ('Cc1ccccc1NC(=O)N/C(N)=N/c1nc(-c2cccc([N+](=O)[O-])c2)cs1', 'SK-OV-3 ovarian', 'TGI', '17.8 µM'),
  ('COC(=O)C(C)NP(=O)(N1CC1)N1CC1 (configuration not stated)', 'SK-OV-3 ovarian', 'TGI', '> 100 µM'),
  ('CC1=C(C(=O)Nc2ccccc2C)C(c2ccc(Cl)c(Cl)c2)C(C(=O)Nc2ccccc2C)=C(C)N1', 'SK-OV-3 ovarian', 'TGI', '81.4 µM'),
  ('C=C(Cl)c1c(OC)cccc1OCc1ccccc1', 'SK-OV-3 ovarian', 'TGI', '> 100 µM'),
  ('COc1cc(/C=C/C(=O)CC(=O)/C=C/c2cc(OC)c(OC)c(OC)c2)cc(OC)c1OC', 'SK-OV-3 ovarian', 'TGI', '67.6 µM'),
  ('O=c1c2c(nc3n1CCS3)[nH]c1ccccc12', 'SK-OV-3 ovarian', 'TGI', '> 100 µM');

I would be grateful if you could provide TGI for each of the following entries.
1. CCOC(=O)C1=CN/C(=C(/C)C(=O)OC)SC1C(=O)OCC (configuration not stated)
2. CO[C@H]1c2cccc3cccc(c23)[C@@H]1n1[nH]c(=O)n(C(C)(C)C)c1=O
3. O=c1c(Oc2ccc(F)cc2F)cc2cnc(NC3CCOCC3)nc2n1C1CCS(=O)(=O)CC1

*A*
["> 100 µM", "> 100 µM", "> 25 µM"]

I would be grateful if you could provide TGI for each of the following entries.
1. CC(O)c1cccc(NCc2c3ccccc3c(=O)n3c2oc2ccccc23)c1 (configuration not stated)
2. CN(C)C=C1C(=O)c2c(Br)sc(Br)c2C1=O
3. COC(=O)Nc1nc2ccc(S(=O)(=O)NC(CC(C)C)C(=O)OC)cc2[nH]1 (configuration not stated)
4. CCC(Sc1cc(Cl)c(C)cc1S(=O)(=O)Nc1nc(N)nc(N(C)C)n1)C(=O)O (configuration not stated)
5. Cc1ccc(-n2cnc3c(N)nc(N)nc32)cc1
6. c1ccc2c(c1)CCC/C2=N\OCC1CO1 (configuration not stated)
7. O=c1ccn(C2OC(CO)C(O)C2F)c(=O)[nH]1 (configuration not stated)
8. Cn1c([N+](=O)[O-])cnc1/C=C1\Oc2ccccc2C1=O

*A*
30.6 µM
62.7 µM
> 100 µM
> 10 µM
> 100 µM
> 100 µM
> 1000 µM
6.34 µM

I would be grateful if you could provide TGI for each of the following entries.
1. COc1cc(/C=C(\C#N)C(=O)c2ccccc2)ccc1OCc1ccccc1
2. CNc1c2cccc(C)c2nc2c(C(=O)NCCN(C)C)cccc12

*A*
1: > 100 µM; 2: 1.94 µM
